Source listed as patent US10899738B2.

Biological target: menin protein (Homo sapiens (Human))
Sequence (O00255 whole entry): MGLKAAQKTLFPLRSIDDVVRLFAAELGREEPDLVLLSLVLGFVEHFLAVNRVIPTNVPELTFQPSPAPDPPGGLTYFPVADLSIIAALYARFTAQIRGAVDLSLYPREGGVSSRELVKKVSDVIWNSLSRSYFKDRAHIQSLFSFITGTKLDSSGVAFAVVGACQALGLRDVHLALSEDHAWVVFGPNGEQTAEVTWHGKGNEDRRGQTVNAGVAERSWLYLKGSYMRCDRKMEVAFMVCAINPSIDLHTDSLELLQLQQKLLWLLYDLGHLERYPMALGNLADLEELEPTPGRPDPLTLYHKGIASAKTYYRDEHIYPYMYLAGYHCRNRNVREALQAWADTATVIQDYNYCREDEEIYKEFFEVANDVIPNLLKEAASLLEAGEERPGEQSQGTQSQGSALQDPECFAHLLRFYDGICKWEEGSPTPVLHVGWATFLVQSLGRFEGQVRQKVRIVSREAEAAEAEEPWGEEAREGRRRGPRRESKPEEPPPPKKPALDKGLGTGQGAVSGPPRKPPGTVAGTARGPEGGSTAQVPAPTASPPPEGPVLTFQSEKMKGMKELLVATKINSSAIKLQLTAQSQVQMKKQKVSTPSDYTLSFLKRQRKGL
Test: biochemical
Type: binding
Conditions: FP competitive binding; menin protein 4 nM, FAM-MM2 probe 2 nM; read-out: Menin Binding Affinity IC50
Procedure: A fluorescence polarization (FP) competitive binding assay was used to determine the binding affinities of representative menin inhibitors. A FAM labeled fluorescent probe was designed and synthesized based on a MLL1 peptide (FAM-MM2). […] The IC50, see Table 3, and Ki values of representative Compounds of the Disclosure were determined in a competitive binding experiment. […] FP values were measured as described above. IC50 values were determined by nonlinear regression fitting of the competition curves.
quantity_name: pIC50
# pIC50 is unitless: minus log10 of the molar concentration; print number only

INPUT: Item under review: N#Cc1ccc(OCCCN2CCC(C3(C4CCCC4)C(=O)NCc4ccccc43)CC2)cc1 (stereo not shown) . Reported pIC50?
OUTPUT: 6.38

INPUT: Any idea what pIC50 was measured for CO[C@@H]1CCC[C@H]1C(C#N)(c1ccccc1)C1CCN(CC2CN(c3ccc(S(C)(=O)=O)cc3)C2)CC1 (mixture of isomers) ?
OUTPUT: 5.01

INPUT: So what does the record say about pIC50 for CC(=O)O[C@H]1CCC[C@@H]1C(C#N)(c1ccccc1F)C1CCN(CCCOc2ccc(C#N)cc2)CC1 (mixture of isomers) ?
OUTPUT: 7.18

INPUT: Tell me the measured pIC50 of CCNC(=O)[C@H]1CCC[C@@H]1C(C#N)(c1ccccc1)C1CCN(CC2CN(c3ccc(S(=O)(=O)C4CC4)cc3)C2)CC1 (mixture of isomers) , please.
OUTPUT: 5.25

INPUT: I am curious: what pIC50 value has been reported for CNC(=O)O[C@@H]1CCC[C@H]1C(C#N)(c1ccccc1)C1CCN(CC2(F)CN(c3ccc(S(=O)(=O)c4cnn(C)c4)cc3)C2)CC1 (mixture of isomers) ?
OUTPUT: 5.44

INPUT: Request the reported pIC50 associated with CN(C)S(=O)(=O)c1ccc(N2CC(CN3CCC(C4(C5CCCC5)NCCc5ccccc54)CC3)C2)cc1 (stereo not shown)
OUTPUT: 7.12

INPUT: # lookup: pIC50 of CNC(=O)C[C@H]1CCC[C@@H]1C(C#N)(c1ccccc1)C1CCN(CC2CN(c3ccc(S(=O)(=O)c4ccncc4)cc3)C2)CC1 (mixture of isomers)
OUTPUT: 5.54

INPUT: Any idea what its pIC50 is? The molecule is CNC(=O)O[C@H]1CCC[C@@H]1[C@](C#N)(c1ccccc1)C1CCN(CC2CN(c3ccc(S(=O)(=O)c4ccncc4)cc3)C2)CC1 (mixture of isomers)
OUTPUT: 8.22

INPUT: Entry CN([C@@H]1CCC[C@H]1C(C#N)(c1ccccc1)C1CCN(CC2CN(c3ccc(S(=O)(=O)C4CC4)cc3)C2)CC1)S(C)(=O)=O (mixture of isomers) : reported pIC50 = ?
OUTPUT: 4.72

INPUT: Look at this molecule and give its reported pIC50. N#Cc1ccc(OCCCN2CCC(C3(C4CCC4)NCCc4ccccc43)CC2)cc1 (stereo not shown)
OUTPUT: 5.96

INPUT: // returns reported pIC50 for input CC(=O)O[C@H]1CCC[C@@H]1C1(C2CCN(CC3CN(c4ccc(S(=O)(=O)C5CC5)cc4)C3)CC2)CN(C)Cc2ccccc21 (mixture of isomers)
OUTPUT: 8.05

INPUT: Look up pIC50 for this molecule: CCC(C)CC1(C2CCN(CCCOc3ccc(C#N)cc3)CC2)NCCc2ccccc21 (stereo not shown)
OUTPUT: 4.95

INPUT: Request the reported pIC50 associated with CC(=O)O[C@H]1CCC[C@@H]1C(C#N)(c1ccccc1)C1CCN(CC2CN(c3ccc(S(C)(=O)=O)cc3)C2)CC1 (mixture of isomers)
OUTPUT: 7.14
